# Ki listing for each entry below
TESTED_SYSTEM: α2 adrenergic receptor (Rattus norvegicus)
Sequence (P22909 whole entry): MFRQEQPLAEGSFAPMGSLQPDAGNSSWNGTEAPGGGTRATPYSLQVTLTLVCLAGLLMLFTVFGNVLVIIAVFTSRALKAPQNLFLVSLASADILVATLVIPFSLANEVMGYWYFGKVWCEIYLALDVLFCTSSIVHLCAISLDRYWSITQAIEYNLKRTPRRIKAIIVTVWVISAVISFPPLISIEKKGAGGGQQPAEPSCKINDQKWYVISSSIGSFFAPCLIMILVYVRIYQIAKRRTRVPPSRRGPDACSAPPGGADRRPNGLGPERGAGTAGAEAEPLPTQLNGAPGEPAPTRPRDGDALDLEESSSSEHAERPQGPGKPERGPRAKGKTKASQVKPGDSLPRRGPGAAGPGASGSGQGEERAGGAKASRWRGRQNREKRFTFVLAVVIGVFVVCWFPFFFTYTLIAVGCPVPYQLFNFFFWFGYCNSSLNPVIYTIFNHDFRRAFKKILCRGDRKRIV
Numeric only. Scale: nM

COMPOUND	MEASURED_VALUE
c1ccc(C(Cc2c[nH]cn2)c2cccnc2)cc1 (stereo not drawn)	4.8
c1ccc(C(Cc2c[nH]cn2)c2ccccn2)cc1 (stereo not drawn)	73

Now consider a different compound.
Enquiry: Hi! What's the reported Ki for c1ccc(C(Cc2c[nH]cn2)c2ccccc2)cc1 [CC, reference compound] on α2 adrenergic receptor (Rattus norvegicus)?
Return: 7.8

---

# pKi listing for each entry below
TESTED_SYSTEM: α1 adrenergic receptor
TEST_SUMMARY: in vitro binding to alpha1-adrenergic receptors (3H-WB4101 or 3H-prazosin displacement), rat brain homogenates
APPLIED_CONDITIONS: ligand 3H-prazosin; Cheng and Prusoff; read-out: α1 receptor Ki value, ligand PRA
Conceptually, pKi converts a concentration in mol/L into minus its log10.

COMPOUND	pKi
c1ccc(C(Cc2c[nH]cn2)c2cccnc2)cc1 (stereo not drawn) [Compound 2]	5.59
c1ccc(C(Cc2c[nH]cn2)c2ccccc2)cc1 [CC, reference compound]	6.18

Enquiry: Tell me the measured pKi of c1ccc(C(Cc2c[nH]cn2)c2ccncc2)cc1 (stereo not drawn) [Compound 1] , please.
Return: 4.87
